Test system: HT-1376 (Bladder Carcinoma)
Assay: combination Emax (second highest fraction inhibited in the dose matrix, 72 h); higher = more inhibition; extreme values may be limits of the assay
OBSERVATION_TYPE: combination Emax

Reference set, count: 2
O=C(c1cc(Cc2n[nH]c(=O)c3ccccc23)ccc1F)N1CCN(C(=O)C2CC2)CC1 [Olaparib] + CC1(C)CCC(CN2CCN(c3ccc(C(=O)NS(=O)(=O)c4ccc(NCC5CCOCC5)c([N+](=O)[O-])c4)c(Oc4cnc5[nH]ccc5c4)c3)CC2)=C(c2ccc(Cl)cc2)C1 [Venetoclax] (first compound max 10 µM, 7x7, partner max 1 µM) :: 0.0615
CC1(C)CCC(CN2CCN(c3ccc(C(=O)NS(=O)(=O)c4ccc(NCC5CCOCC5)c([N+](=O)[O-])c4)c(Oc4cnc5[nH]ccc5c4)c3)CC2)=C(c2ccc(Cl)cc2)C1 [Venetoclax] + CN(C)CCCOc1ccc(-c2ccc3ncc4c(c3c2)n(C2CCOCC2)c(=O)n4C)cn1 [AZD0156] (first compound max 1 µM, 7x7, partner max 1 µM) :: 0.189

Measured combination Emax (HT-1376 (Bladder Carcinoma)), entry Cc1c2c(nn1C)CSCc1cc(n(C)n1)CSc1cc(c3ccccc3c1)OCCCc1c(C(=O)O)n(C)c3c-2c(Cl)ccc13 [AZD5991] + Nc1ccn([C@@H]2O[C@H](CO)[C@@H](O)C2(F)F)c(=O)n1 [Gemcitabine] (first compound max 1 µM, 7x7, partner max 0.3 µM) : 0.215
